Molecular target: T1, O11-bN
T1 chain: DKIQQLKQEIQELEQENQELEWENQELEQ
Assay: two-hybrid library CCNG1;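 note: natural log of median RNA to DNA barcode read ratio; higher means stronger binding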
assay metric: interaction score

binder	assay metric	quantitative readout
DKNQQLKQENQELEQKIQELKWKIQELKQ [O10-bN]	interaction score	0.648
DKNQQLKQENQELEQEIQELEWEIQELEQ [O1-bN]	interaction score	-1.2
DKIQQLKQEIQELEQENQELEWENQELEQ [O11-bN]	interaction score	-0.191
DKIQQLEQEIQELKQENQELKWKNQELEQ [4H2143-bN]	interaction score	-1.88
